Test: pKa was determined
Type: physicochemical
endpointName: pKa

NCCCC[C@H](N)C(=O)O [LYSINE] = 10.2
